# Tested on: P. aeruginosa ATCC 27853
# Type: cell-based, Pseudomonas aeruginosa
# Experimental: Minimum inhibitory concentration (MIC) was determined using the modified standard microtiter dilution method as described previously. The bacteria were incubated overnight at 37 °C, […] at 220 rpm and transferred to new nutrient broth (MHB) until the logarithmic phase of growth. The bacteria were then diluted into 10^5 colony forming units (10^5 CFU/mL) in MHB. […] The results are expressed as an average of the MICs at least three times. […]
No end group written: not given here.
Parameter Measured: MIC (µM)
Give bare numbers, in µM.

{"Substance": "FRIRVRVKWKLFKKI-NH2 [FV-CE]", "Experimental Target": "P. aeruginosa ATCC 27853", "Unit Annotation": "µM", "Value": 2}

List the reported MIC of each substance below.
1. FRIRVRVFKRIVQRIKDFLR-NH2 [FV-LL]
2. FRIRVRV-NH2 [FV7]
3. FKRIVQRIKDFLR-NH2 [LL]

1. 4
2. 16
3. 8

Lab note: substance FRIRVRVAKKFGKAFVGEIM-NH2 [FV-MA] tested on P. aeruginosa ATCC 27853; recorded MIC was 8

====

# Test system: E. coli UB 1005
# Format: cell-based, Escherichia coli
No end group written: not given here.
Give measured log10 of MIC for each item. Keep answers brief.
The figures below represent log10 of MIC, where MIC is stated in µM.

{"Substance": "FRIRVRVFKRIVQRIKDFLR-NH2 [FV-LL]", "log10 of MIC": 0.60}
{"Substance": "FRIRVRV-NH2 [FV7]", "log10 of MIC": 1.51}
{"Substance": "FKRIVQRIKDFLR-NH2 [LL]", "log10 of MIC": 1.20}

List the reported log10 of MIC of each substance below.
1. FRIRVRVAKKFGKAFVGEIM-NH2 [FV-MA]
2. FRIRVRVKWKLFKKI-NH2 [FV-CE]

[0.90, 0.30]

====

Give measured MIC for each item. Keep answers brief.
# Tested on: S. epidermidis ATCC12228
# Format: cell-based, Staphylococcus epidermidis
No end group written: not given here.
Answers are plain numbers, in µM.

{"Substance": "FRIRVRVFKRIVQRIKDFLR-NH2 [FV-LL]", "Parameter Measured": "MIC", "Unit Annotation": "µM", "Value": 1}
{"Substance": "FKRIVQRIKDFLR-NH2 [LL]", "Parameter Measured": "MIC", "Unit Annotation": "µM", "Value": 8}
{"Substance": "FRIRVRV-NH2 [FV7]", "Parameter Measured": "MIC", "Unit Annotation": "µM", "Value": 32}
{"Substance": "FRIRVRVKWKLFKKI-NH2 [FV-CE]", "Parameter Measured": "MIC", "Unit Annotation": "µM", "Value": 0.5}

In the following, a different substance is considered.
MIC reported for this substance FRIRVRVAKKFGKAFVGEIM-NH2 [FV-MA] : 8

====

Give measured MIC for each item. Keep answers brief.
# Tested on: S. typhimurium ATCC 7731
# Assay type: cell-based, Salmonella typhimurium
No end group written: not given here.
One number for each entry, in µM.

Before answering, review these 4 worked examples.
{"Substance": "FRIRVRVAKKFGKAFVGEIM-NH2 [FV-MA]", "Unit Annotation": "µM", "MIC": 4}
{"Substance": "FRIRVRVKWKLFKKI-NH2 [FV-CE]", "Unit Annotation": "µM", "MIC": 4}
{"Substance": "FRIRVRVFKRIVQRIKDFLR-NH2 [FV-LL]", "Unit Annotation": "µM", "MIC": 2}
{"Substance": "FRIRVRV-NH2 [FV7]", "Unit Annotation": "µM", "MIC": 32}

In the following, a different substance is considered.
MIC reported for this substance FKRIVQRIKDFLR-NH2 [LL] : 16
